# Experimental System: Stp1 (UniProt B3LFK1)
# Sequence: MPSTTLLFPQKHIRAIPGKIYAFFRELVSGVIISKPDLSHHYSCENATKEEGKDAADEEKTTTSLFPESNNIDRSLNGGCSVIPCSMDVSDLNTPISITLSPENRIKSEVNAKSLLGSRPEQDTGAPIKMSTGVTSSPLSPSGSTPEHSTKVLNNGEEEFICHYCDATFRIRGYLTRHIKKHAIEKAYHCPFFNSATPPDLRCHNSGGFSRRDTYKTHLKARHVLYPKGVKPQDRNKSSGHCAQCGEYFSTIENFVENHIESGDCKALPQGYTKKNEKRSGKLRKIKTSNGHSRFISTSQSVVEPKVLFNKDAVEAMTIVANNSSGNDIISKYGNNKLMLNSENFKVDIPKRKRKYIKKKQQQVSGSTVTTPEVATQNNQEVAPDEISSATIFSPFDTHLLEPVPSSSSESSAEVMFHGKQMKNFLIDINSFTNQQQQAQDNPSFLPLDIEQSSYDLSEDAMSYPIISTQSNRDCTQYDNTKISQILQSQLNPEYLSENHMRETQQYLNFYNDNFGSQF
# Protocol Text: PBM E-score (8-mer binding enrichment) (E-score (-0.5 to 0.5)); higher = stronger / more preferred TF binding
# Test Conditions: protein concentration: 200 nM; construct: GST-full length
Over roughly 33,000 sequences, “E-score (-0.5 to 0.5)” has its median near -0.016; the highest 2% begin near 0.32. Only a selection was taken, and the highest values are over-represented in it overall.
Recorded Metric: PBM E-score

## Task Give the reported PBM E-score for this sequence. `ACGGAGCT`
## Result 0.087

## Task Specify measured PBM E-score for `CAGGCGGC` .
## Result 0.3

## Task Tell me measured PBM E-score for `AAGTGCCG` please.
## Result 0.453

## Task Supply recorded PBM E-score for `GCGCCTTA` here.
## Result 0.399

## Task Tell me PBM E-score reported for `CCTTGATC`
## Result 0.1

## Task For `ATGCGCGG` , write its PBM E-score.
## Result 0.307

## Task Specify measured PBM E-score for `GAATCGGC` .
## Result 0.268

## Task Answer with the recorded PBM E-score of `GCGCCTGA` only.
## Result 0.16

## Task Indicate its recorded PBM E-score; the sequence in question is `AGCGGGAT`
## Result 0.0317

## Task For the sequence `ATCTGCTC` , report PBM E-score.
## Result -0.272

## Task Name the recorded PBM E-score of the item `ACATGCCC` in your answer.
## Result -0.168

## Task Identify PBM E-score associated with the sequence `GAGGGGGC`
## Result -0.277

## Task Output measured PBM E-score for this item: `CCGGCGCG`
## Result 0.298

## Task Name the recorded PBM E-score of the item `CAGCGCGA` in your answer.
## Result -0.0618

## Task Using known records, supply PBM E-score for `CAGAACGA`
## Result 0.00724

## Task Give me measured PBM E-score, please, for this sequence: `AAAAGAAG`
## Result 0.19

## Task Return PBM E-score (reported value) for this sequence: `CATATAAG`
## Result 0.118

## Task Look up and state reported PBM E-score for `CGGCGCGC`
## Result 0.475

## Task Give recorded PBM E-score. `TCGCCGAA`
## Result 0.105

## Task Item `GTATACCA` : provide PBM E-score
## Result 0.0622

## Task Retrieve PBM E-score measured for `CTGCGCGC` and print it.
## Result 0.269

## Task Return value of PBM E-score for input `CCGCCTTA` , no commentary.
## Result 0.201

## Task Return the recorded PBM E-score value; entry: `AGATGCAA`
## Result -0.0126

## Task Name the recorded PBM E-score of the item `CCATGCCG` in your answer.
## Result 0.336

## Task Give PBM E-score for the following sequence: `CCTGCCCA`
## Result -0.259

## Task Provide PBM E-score value for the following sequence: `ACGCGCGA`
## Result 0.105

## Task // fetch PBM E-score given entry `CCTACATC`
## Result -0.191

## Task Give recorded PBM E-score. `CCGGCAAA`
## Result 0.116

## Task Supply measured PBM E-score of `AGGCGCGG` in your reply.
## Result 0.355

## Task State its PBM E-score for this sequence: `AAGCACCC`
## Result -0.224

## Task Tell us which PBM E-score value is on record for `AGCCAGCA`
## Result -0.297

## Task Note down PBM E-score recorded for `CGGAAACA`
## Result -0.0866

## Task Please report PBM E-score for the following sequence: `AGCCGCTA`
## Result 0.119

## Task Please indicate PBM E-score recorded for `ACCTTACC`
## Result 0.0147

## Task Consider the sequence `ACATGCCT` . State its measured PBM E-score.
## Result 0.066

## Task Consider the sequence `AGTGGCAC` and give its recorded PBM E-score.
## Result 0.209

## Task Recall and state the measured PBM E-score for `GACTTGGC` .
## Result -0.232

## Task Specify PBM E-score for `AAGCGAGC` and stop.
## Result 0.0162

## Task Hello, please tell me recorded PBM E-score for this one: `GCGGCGCA`
## Result 0.463

## Task Fill in PBM E-score for record `GGACGGCC`
## Result 0.16

## Task Kindly indicate its recorded PBM E-score. Item: `AGTGGCAA`
## Result 0.162

## Task Given the sequence `ATTTGGAA` , write its reported PBM E-score.
## Result 0.0474

## Task Report PBM E-score, nothing else, for this sequence: `AAGTGCCC`
## Result 0.079

## Task Kindly indicate its recorded PBM E-score. Item: `GTACACGA`
## Result 0.136

## Task State its PBM E-score for this sequence: `AGACGGCA`
## Result 0.449

## Task Provide one value: measured PBM E-score of `CAAGGCGG`
## Result 0.101

## Task Consider the sequence `ACATGCCG` . State its measured PBM E-score.
## Result 0.369

## Task Report PBM E-score, nothing else, for this sequence: `AAGTAAGG`
## Result -0.0479

## Task Complete the entry with PBM E-score for `AGTTGATG`
## Result -0.0271

## Task Look up PBM E-score of `TCGGCGCA` and report it.
## Result 0.243

## Task Give PBM E-score for `CACGCATC`
## Result 0.0489

## Task // Input: `AGCGAAAG` . Output its PBM E-score only.
## Result -0.138

## Task Give the reported value of PBM E-score for this record: `AGCCCCTG`
## Result -0.353

## Task Determine its reported PBM E-score: `ACTGGCAG`
## Result 0.0412

## Task Retrieve PBM E-score measured for `AGGCCAAT` and print it.
## Result -0.152

## Task Give the reported PBM E-score for this sequence. `CCATGCCA`
## Result 0.148

## Task Please give the documented PBM E-score of `TCCGGCAA`
## Result -0.00549

## Task Output PBM E-score of `GTCGGCAC`
## Result 0.172

## Task Quote PBM E-score reported for `CCGGCAAC` please.
## Result 0.0817

## Task Give me measured PBM E-score, please, for this sequence: `CACGTGCG`
## Result 0.272

## Task Please list PBM E-score recorded for the sequence `GGCGGCAA`
## Result 0.286

## Task # return recorded PBM E-score for entry `CGCGGGCA`
## Result 0.175

## Task Specify measured PBM E-score for `CTTCCCAC` .
## Result -0.0242

## Task Please report PBM E-score for the following sequence: `AAAAGAAT`
## Result 0.322

## Task Indicate its recorded PBM E-score; the sequence in question is `GAGGCGGC`
## Result 0.374

## Task Specify reported PBM E-score for the sequence shown: `CCAACATC`
## Result -0.127

## Task Tell us which PBM E-score value is on record for `CTTTTTGC`
## Result 0.0819

## Task For the sequence `ATGCCATA` , report PBM E-score.
## Result 0.117

## Task Read off the recorded PBM E-score for `CGCGGCAA`
## Result 0.424

## Task // fetch PBM E-score given entry `AAGTGCCA`
## Result 0.163

## Task Read the entry `CGCCGCTA` and write its reported PBM E-score.
## Result 0.299

## Task Report PBM E-score for `AATATAAG`
## Result 0.32

## Task Return reported PBM E-score. Input sequence: `CAGGGGGG`
## Result -0.469

## Task Return PBM E-score (reported value) for this sequence: `ACAGTCTA`
## Result -0.00216
